The reported numbers originate from patent EP0091755A1.

Tested on: P mirabilis C977
Test: Antibacterial activity (MIC) against P mirabilis C977
Format: cell-based
Conditions: Proteus mirabilis; P. Mirabilis C977; table; read-out: Antibacterial activities (MIC)
REPORTED_PROPERTY: MIC (µg/mL)

1. CO[C@@]1(NC(=O)C(NC(=O)Nc2cnc(Nc3ccc(S(N)(=O)=O)cc3)nc2O)c2ccco2)C(=O)N2[C@@H](C(=O)O)C(C)(C)S[C@@H]21 (stereo partly drawn) [Example 6]	2
2. CO[C@@]1(NC(=O)C(NC(=O)Nc2cnc(Nc3ccc(S(N)(=O)=O)cc3)nc2O)c2ccccc2F)C(=O)N2[C@@H](C(=O)O)C(C)(C)S[C@@H]21 (stereo partly drawn) [Example 7]	1
3. CO[C@@]1(NC(=O)C(NC(=O)Nc2cnc(Nc3ccc(S(N)(=O)=O)cc3)nc2O)c2ccc(F)cc2)C(=O)N2[C@@H](C(=O)O)C(C)(C)S[C@@H]21 (stereo partly drawn) [Example 8]	8
4. CO[C@@]1(NC(=O)[C@@H](NC(=O)Nc2cnc(Nc3ccc(S(N)(=O)=O)cc3)nc2O)c2cccs2)C(=O)N2[C@@H](C(=O)O)C(C)(C)S[C@@H]21 [Example 5]	2.5
5. CO[C@@]1(NC(=O)[C@H](NC(=O)Nc2cnc(Nc3ccc(S(N)(=O)=O)cc3)nc2O)c2cccs2)C(=O)N2[C@@H](C(=O)O)C(C)(C)S[C@@H]21 [Example 4]	1
6. CO[C@@]1(NC(=O)C(NC(=O)Nc2cnc(Nc3ccc(S(N)(=O)=O)cc3)nc2O)c2ccc(OC(C)=O)c(OC(C)=O)c2)C(=O)N2[C@@H](C(=O)O)C(C)(C)S[C@@H]21 (stereo partly drawn) [Example 9]	2
